# Target: EPHB1 (UniProt P54762)
# Sequence (P54762 whole entry, looked up): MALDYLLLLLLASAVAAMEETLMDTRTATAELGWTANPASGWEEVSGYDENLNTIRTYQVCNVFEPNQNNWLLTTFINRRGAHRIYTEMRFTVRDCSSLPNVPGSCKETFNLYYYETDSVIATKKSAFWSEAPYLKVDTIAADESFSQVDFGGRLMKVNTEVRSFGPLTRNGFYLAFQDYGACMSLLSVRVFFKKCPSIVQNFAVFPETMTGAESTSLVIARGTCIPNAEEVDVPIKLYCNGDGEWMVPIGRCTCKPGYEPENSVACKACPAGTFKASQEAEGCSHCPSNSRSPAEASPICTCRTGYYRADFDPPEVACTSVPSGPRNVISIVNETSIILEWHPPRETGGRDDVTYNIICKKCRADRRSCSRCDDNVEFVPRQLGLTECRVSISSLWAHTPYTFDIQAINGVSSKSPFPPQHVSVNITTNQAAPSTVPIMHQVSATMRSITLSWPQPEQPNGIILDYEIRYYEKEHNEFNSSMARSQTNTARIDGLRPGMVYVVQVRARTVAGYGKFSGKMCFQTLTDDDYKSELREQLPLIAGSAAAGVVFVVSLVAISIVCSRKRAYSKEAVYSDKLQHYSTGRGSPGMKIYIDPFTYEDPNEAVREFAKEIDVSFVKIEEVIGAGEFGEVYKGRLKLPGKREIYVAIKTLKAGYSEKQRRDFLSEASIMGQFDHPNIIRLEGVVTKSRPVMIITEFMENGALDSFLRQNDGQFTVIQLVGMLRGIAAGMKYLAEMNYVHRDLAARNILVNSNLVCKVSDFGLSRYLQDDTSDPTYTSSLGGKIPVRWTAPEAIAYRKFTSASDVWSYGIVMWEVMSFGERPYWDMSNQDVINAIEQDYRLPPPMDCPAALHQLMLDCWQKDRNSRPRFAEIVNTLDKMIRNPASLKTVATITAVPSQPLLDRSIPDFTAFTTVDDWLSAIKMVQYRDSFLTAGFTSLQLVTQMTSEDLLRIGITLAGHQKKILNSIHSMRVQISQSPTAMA
# Procedure details: phosphorylation enrichment, bacterial display (enrichment ratio); higher = better substrate or ligand; peptides without Tyr show the background;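 note: 11-residue human phosphosite peptides and single-mutation variants displayed on the E. coli surface, counted by deep sequencing, each peptide's frequency after selection divided by its frequency in the unselected input library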;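 note: frequency after pTyr selection over input frequency; kinase dosed for 20-30% of maximal phosphorylation in three min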
Parameter: phosphorylation enrichment
Reply with the value as a number alone.

// worked examples, phosphorylation enrichment included
KRTFEYEAEKN [DENND2B_Y396_D399E]	0.43
RRERLYGGGGG [FUS_Y526_P525L]	0.677
RVLHNYLVWRV [ECEL1_Y400]	1.6
QLAPQYTFTQG [FLNA_Y1761_A1764T_YF]	0.621
AVDMTYDGHPV [FLNB_Y1020_V1018M]	1.67
ADGLEYSRTGL [MMUT_Y287]	0.555

Next, consider the following sequence.
Query: Sample KVGRVYLFLQP [ITGA2B_Y360_E355K] — what was its phosphorylation enrichment?
Reply: 0.558
